Origin of measurements: PubChem BioAssay AID1241

- ASSAY_PROTOCOL: NF-kB promoter reporter activators, neuronal cells, dose response, cell-based, SH-SY5Y, luciferase (AID 1241)
- SETTINGS: fold induction
Catalogue of EC50 readings, one per entry.

- SMILES: "CCOc1ccc(OCc2cccc(C(=O)O)c2)cc1"
  EC50: "1.85 µM"
- SMILES: "N/C(=N\\OC(=O)c1ccc(Cl)cc1Cl)c1cccnc1"
  EC50: "2.1 µM"
- SMILES: "CCOC(=O)c1sc(NC(=O)c2ccccc2)cc1C"
  EC50: "5.74 µM"
- SMILES: "COc1ccc(NC(=O)N2CCc3ccccc32)cc1"
  EC50: "0.697 µM"
- SMILES: "c1ccc2oc(-c3csc(N4CCOCC4)n3)cc2c1"
  EC50: "0.966 µM"
- SMILES: "O=C(NCCSc1ccccc1)c1ccc(Br)cc1"
  EC50: "1.34 µM"
- SMILES: "O=S1(=O)N=C(Nc2nc3c(s2)CCCC3)c2ccccc21"
  EC50: "21.8 µM"
- SMILES: "Cc1nnc(SCC(=O)Nc2ccc(-c3nc4ccccc4s3)cc2)s1"
  EC50: "0.328 µM"
- SMILES: "Nc1nn(-c2cccc(F)n2)cc1-c1ccccc1"
  EC50: "26 µM"
- SMILES: "COc1ccc(-c2cc(=O)c3cc(O)ccc3o2)cc1"
  EC50: "6.99 µM"
- SMILES: "COc1ccc2nc3oc(C(=O)N4CCCCC4)cc3cc2c1"
  EC50: "5.27 µM"
- SMILES: "CC(=O)Nc1cccc(-c2csc(Nc3cccc(C)n3)n2)c1"
  EC50: "1.63 µM"

----------
- ASSAY_PROTOCOL: NF-kB promoter reporter activators, neuronal cells, dose response, cell-based, SH-SY5Y, luciferase (AID 1241)
- SETTINGS: fold induction
pEC50: −log10 of the molar value.
pEC50 reference

- SMILES: "COc1cccc(NC(=O)C(=S)NC2CCCCC2)c1"
  pEC50: 5.37
- SMILES: "CCS/C(N)=N/N=C/c1cc(C)ccc1O"
  pEC50: 5.48
- SMILES: "CCN(CC)S(=O)(=O)c1cc(C(=O)OCC(=O)Nc2ccc(-c3nc4ccc(C)cc4s3)cc2)ccc1F"
  pEC50: 6.29
- SMILES: "Cc1cccc(/C=C/c2nc3ccccc3c(=O)[nH]2)c1"
  pEC50: 6.08
- SMILES: "CCc1ccc(-c2cn3c(n2)SCC3)cc1"
  pEC50: 5.01
- SMILES: "O=C(Nc1ccc2sc3ccccc3c(=O)c2c1)c1ccccc1Cl"
  pEC50: 5.15
- SMILES: "COc1cccc(-c2noc(-c3cccs3)n2)c1"
  pEC50: 5.66
- SMILES: "O=C(Nc1ccc2nsnc2c1)c1ccc2c(c1)OCO2"
  pEC50: 5.73
- SMILES: "CN(c1ccccc1)c1ccc(/C=N/N2CCOCC2)cc1"
  pEC50: 5.17
- SMILES: "O=C(COc1ccccc1Cl)Nc1ccc(Cl)cn1"
  pEC50: 4.81
- SMILES: "Fc1c(F)c(F)c(N/N=C/c2c[nH]c3ccccc23)c(F)c1F"
  pEC50: 5.41
- SMILES: "O=C(Nc1cccnc1Cl)c1ccc2c(Cl)c3c(nc2c1)CCC3"
  pEC50: 6.17
- SMILES: "O=C(/C=C/c1ccccc1Cl)Nc1cccc(O)c1"
  pEC50: 5.95
- SMILES: "CCC(=O)Oc1ccc(-c2cnc3ccccc3n2)cc1"
  pEC50: 4.67
- SMILES: "Cc1ccc(NC(=O)N2CCc3ccccc32)cc1"
  pEC50: 6.12
- SMILES: "Clc1ccc2nc(N3CCCCC3)[nH]c2c1"
  pEC50: 5.11
- SMILES: "CCc1ccc(C(=O)/C=C/c2cnn(C)c2C)s1"
  pEC50: 5.10
- SMILES: "Cc1ccc(O)c(NC(=O)c2noc3c2CCCCC3)c1"
  pEC50: 5.03
- SMILES: "CCCCc1ccc(-c2ccc(Br)cc2O)nc1"
  pEC50: 5.47
- SMILES: "O=C(Nc1ccon1)c1cc2c(s1)CCCC2"
  pEC50: 5.38
- SMILES: "Fc1ccccc1Nc1nc2c(s1)CCc1ccccc1-2"
  pEC50: 5.47
- SMILES: "CC(C)Oc1cccc(C(=O)Nc2ccc(Br)cc2F)c1"
  pEC50: 5.61
- SMILES: "Cc1ccccc1-c1cc(-c2ccccc2O)on1"
  pEC50: 5.01
- SMILES: "Cc1ccc(-c2noc(-c3cccs3)n2)cc1"
  pEC50: 5.64
- SMILES: "CC(=O)Oc1ccc(Oc2ccc(-c3noc(C)n3)cc2)cc1"
  pEC50: 5.55
- SMILES: "Cc1ccsc1C(=O)Nc1ccc2c(c1)OCCO2"
  pEC50: 5.51
- SMILES: "CC(C)c1cc(C(=O)Nc2cccc(Cl)c2)no1"
  pEC50: 5.62
- SMILES: "Cc1cc(O)ccc1Nc1nc(-c2cccs2)cs1"
  pEC50: 5.82
- SMILES: "O=C(CSc1cccc[n+]1[O-])c1cc(Cl)ccc1Cl"
  pEC50: 5.71
- SMILES: "Clc1ccc(OCc2nc(-c3ccncc3)no2)c(Cl)c1"
  pEC50: 5.95
- SMILES: "CC(=O)c1cccc(N/C=C\\C(=O)c2ccc(C)cc2)c1"
  pEC50: 6.04
- SMILES: "Cc1ccc(C)c(NC(=S)c2ccccn2)c1"
  pEC50: 5.17
- SMILES: "Cc1sc(NC(=O)c2ccco2)nc1-c1ccccc1"
  pEC50: 5.56
- SMILES: "CCOC(=O)c1ccc2nc(NC(=O)c3cccs3)sc2c1"
  pEC50: 5.71
- SMILES: "N/C(=N\\OC(=O)c1cccc(Br)c1)c1ccccc1"
  pEC50: 4.63
- SMILES: "COc1ccc(-c2csc(NCc3ccco3)n2)cc1"
  pEC50: 5.43
- SMILES: "CC(C)CC(=O)Nc1ccc2nn(-c3ccccc3)nc2c1"
  pEC50: 5.24
- SMILES: "COC(=O)c1ccc(-c2nc3ccccc3[nH]2)cc1"
  pEC50: 6.02
- SMILES: "O=C(Nc1ccccc1)Nc1nc2ccccc2s1"
  pEC50: 4.57
- SMILES: "O=C(CCCc1ccccc1)Nc1ccc2c(c1)OCCO2"
  pEC50: 5.82
- SMILES: "CCc1ccc2oc(-c3ccc(N)cc3)nc2c1"
  pEC50: 6.47
- SMILES: "CN(C)c1ccc(/C=N/NC(=O)c2ccco2)cc1"
  pEC50: 4.74
- SMILES: "Cc1cc(NC(=O)Nc2ccccc2F)ccc1Br"
  pEC50: 5.36
- SMILES: "O=C(Nc1nc2ccccc2s1)NC1CCCCC1"
  pEC50: 5.62
- SMILES: "O=C(Nc1ccc2sccc2c1)c1ccc(Cl)s1"
  pEC50: 6.29
- SMILES: "CC(C)c1ccc(OCc2nc(-c3ccccn3)no2)c(Br)c1"
  pEC50: 5.99
- SMILES: "N#C/C(=N\\Nc1ccc(F)cc1)C(=N)N1CCCCC1"
  pEC50: 5.53
- SMILES: "Cc1ccc(Cc2cnc(NC(=O)c3ccco3)s2)cc1"
  pEC50: 5.87
- SMILES: "O/C(=C\\c1ccc2ccccc2n1)c1ccc(O)cc1O"
  pEC50: 6.02
- SMILES: "Oc1ccccc1/C=N/Nc1cccc2cccnc12"
  pEC50: 5.45
- SMILES: "O=C(Nc1ccn(Cc2ccccc2)n1)c1cccc(F)c1"
  pEC50: 4.82
- SMILES: "Clc1ccc(-c2nnc(SCc3ccon3)o2)c(Cl)c1"
  pEC50: 5.97
